substrate: CC(O)CO; assay: purified protein; type: biochemical, Paracoccus denitrificans; conditions: 100 mM glycine-NaOH pH 10, 2.4 mM NAD+, 30 °C, oxidation
Please respond with reported Km for every item in the list.
Answers are plain numbers, in mM.

Worked examples follow.
protein	unit.abbrev	Km
EtgB, NAD-dependent alcohol dehydrogenase (Pden_2367) (enzyme, Paracoccus denitrificans DSM 413, The enzyme holds zinc ions; also called EtgB WT; alcohol dehydrogenase EtgB; source: E. coli BL21 AI, purified (Ni-NTA, desalting, size exclusion on Superdex 200 Increase)) MAKTMKAAVVREFGKPLTIDEVPVPEPGPGMIQVRIQASGVCHTDLHAAEGDWPVKPNPPFIPGHEGVGFVSAVGAGVKHVKEGDRVGVPWLYTACGHCRHCLGGWETLCESQLNTGYSVNGGFADYVVADPNYVGHLPKNVDFLDIAPVLCAGVTVYKGLKVTDTKPGDWVVISGIGGLGHMAVQYAKAMGMNVAAVDIDDEKLALARKLGATVTVNAATEPDPAAAIRKQTDGGAQGVLVTAVGRKAFEQAIGMVARGGTVALNGLPPGDFPLDIFGMVLNGITVRGSIVGTRLDLQESLDFAGDGKVKATVHKAKLEDINNIFGQMHKGQIEGRMVLDMAG	mM	59.46
EtgB (Paracoccus denitrificans PD1222; H47N/T44S) (protein, pET16b, His-tagged, E. coli BL21 AI, Ni-NTA purified; homotetramer; zinc-dependent medium-chain alcohol dehydrogenase) MAKTMKAAVVREFGKPLTIDEVPVPEPGPGMIQVRIQASGVCHSDLNAAEGDWPVKPNPPFIPGHEGVGFVSAVGAGVKHVKEGDRVGVPWLYTACGHCRHCLGGWETLCESQLNTGYSVNGGFADYVVADPNYVGHLPKNVDFLDIAPVLCAGVTVYKGLKVTDTKPGDWVVISGIGGLGHMAVQYAKAMGMNVAAVDIDDEKLALARKLGATVTVNAATEPDPAAAIRKQTDGGAQGVLVTAVGRKAFEQAIGMVARGGTVALNGLPPGDFPLDIFGMVLNGITVRGSIVGTRLDLQESLDFAGDGKVKATVHKAKLEDINNIFGQMHKGQIEGRMVLDMAG	mM	19.75

Hey, can you go through the list below and give me Km for every item?
1. EtgB (Paracoccus denitrificans PD1222; T44S) (protein, pET16b, His-tagged, E. coli BL21 AI, Ni-NTA purified; homotetramer; zinc-dependent medium-chain alcohol dehydrogenase) MAKTMKAAVVREFGKPLTIDEVPVPEPGPGMIQVRIQASGVCHSDLHAAEGDWPVKPNPPFIPGHEGVGFVSAVGAGVKHVKEGDRVGVPWLYTACGHCRHCLGGWETLCESQLNTGYSVNGGFADYVVADPNYVGHLPKNVDFLDIAPVLCAGVTVYKGLKVTDTKPGDWVVISGIGGLGHMAVQYAKAMGMNVAAVDIDDEKLALARKLGATVTVNAATEPDPAAAIRKQTDGGAQGVLVTAVGRKAFEQAIGMVARGGTVALNGLPPGDFPLDIFGMVLNGITVRGSIVGTRLDLQESLDFAGDGKVKATVHKAKLEDINNIFGQMHKGQIEGRMVLDMAG
2. EtgB (Paracoccus denitrificans PD1222; H47N) (protein, pET16b, His-tagged, E. coli BL21 AI, Ni-NTA purified; homotetramer; zinc-dependent medium-chain alcohol dehydrogenase) MAKTMKAAVVREFGKPLTIDEVPVPEPGPGMIQVRIQASGVCHTDLNAAEGDWPVKPNPPFIPGHEGVGFVSAVGAGVKHVKEGDRVGVPWLYTACGHCRHCLGGWETLCESQLNTGYSVNGGFADYVVADPNYVGHLPKNVDFLDIAPVLCAGVTVYKGLKVTDTKPGDWVVISGIGGLGHMAVQYAKAMGMNVAAVDIDDEKLALARKLGATVTVNAATEPDPAAAIRKQTDGGAQGVLVTAVGRKAFEQAIGMVARGGTVALNGLPPGDFPLDIFGMVLNGITVRGSIVGTRLDLQESLDFAGDGKVKATVHKAKLEDINNIFGQMHKGQIEGRMVLDMAG

[27.68, 67.18]
